# Test system: CN0375-F725-PDC KRAS spheroid viability
# assay-details: Anticancer human tumor CN0375-F725-PDC patient-derived colon carcinoma cell line growth inhibition [KRAS2]
# study-conditions: second compound 0.316 µM; first compound 1 µM; hits give low values; spheroids with HUVEC and MSC
endpoint: viability, T/C (%)
Value expressed in %; do not type the unit.

Query (compound): COC(=O)c1ccc2c(C(=Nc3ccc(N(C)C(=O)CN4CCN(C)CC4)cc3)c3ccccc3)c(O)[nH]c2c1 + CNCc1ccccc1-c1csc(C(C)Nc2nc(C)nc3cc(OC)c(OC)cc23)c1 ; field requested: viability, T/C
73.1

Fill in: viability, T/C of COc1cc2nccc(Oc3ccc(NC(=O)C4(C(=O)Nc5ccc(F)cc5)CC4)cc3)c2cc1OC + CC1OCC2(CCN(c3cnc(Sc4ccnc(N)c4Cl)c(N)n3)CC2)C1N is ___
68.4

Which measured viability, T/C value corresponds to COc1cc(Nc2ncc3c(n2)-c2ccc(Cl)cc2C(c2c(F)cccc2OC)=NC3)ccc1C(=O)O + C=CC(=O)N1CCN(c2nc(OCC3CCCN3C)nc3c2CCN(c2cccc4cccc(C)c24)C3)CC1CC#N ?
91.8

What viability, T/C value was documented for this compound, CC1(C)CCC(CN2CCN(c3ccc(C(=O)NS(=O)(=O)c4ccc(NCC5CCOCC5)c([N+](=O)[O-])c4)c(Oc4cnc5[nH]ccc5c4)c3)CC2)=C(c2ccc(Cl)cc2)C1 + COc1cc2nc(C)nc(NC(C)c3cc(N)cc(C(F)(F)F)c3)c2cc1OC1CCOC1 ?
93.7

If you can, please state the reported viability, T/C value of COc1cc(Nc2ncc3c(n2)-c2ccc(Cl)cc2C(c2c(F)cccc2OC)=NC3)ccc1C(=O)O + CC1OCC2(CCN(c3cnc(Sc4ccnc(N)c4Cl)c(N)n3)CC2)C1N .
82.1

* * *

# Test system: CN0375-F725-PDC KRAS spheroid viability
# assay-details: Anticancer human tumor CN0375-F725-PDC cell line growth inhibition [KRAS2];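 further: spheroids exposed to agents for 7 days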
# study-conditions: second compound 0.316 µM; first compound 0.1 µM; hits give low values; spheroids with HUVEC and MSC
endpoint: viability, T/C (%)
Kindly answer with a numeric value in %, unit omitted.

// query viability, T/C value for entry CC1COCCN1c1cc(-c2ccnn2C)c2ccnc(-c3ccn[nH]3)c2n1 (stereo not given) + CNCc1ccccc1-c1csc(C(C)Nc2nc(C)nc3cc(OC)c(OC)cc23)c1
74.1

Consider the compound Cn1nccc1Nc1nccc(-c2cc3c(s2)C(C)(C)N(CCN2CCOCC2)C3=O)n1 + C=CC(=O)N1CCN(c2nc(OCC3CCCN3C)nc3c2CCN(c2cccc4cccc(C)c24)C3)CC1CC#N and give its measured viability, T/C.
91.3

# viability, T/C lookup, item CC1COCCN1c1cc(-c2ccnn2C)c2ccnc(-c3ccn[nH]3)c2n1 (stereo not given) + CC1OCC2(CCN(c3cnc(Sc4ccnc(N)c4Cl)c(N)n3)CC2)C1N
74.3

Fill in: viability, T/C of CC(=O)OC12COC1CC(O)C1(C)C(=O)C(O)C3=C(C)C(OC(=O)C(O)C(NC(=O)OC(C)(C)C)c4ccccc4)CC(O)(C(OC(=O)c4ccccc4)C21)C3(C)C (stereo not given) + CNCc1ccccc1-c1csc(C(C)Nc2nc(C)nc3cc(OC)c(OC)cc23)c1 is ___
77.5

Would you kindly share the measured viability, T/C for COc1cc2nccc(Oc3ccc(NC(=O)C4(C(=O)Nc5ccc(F)cc5)CC4)cc3)c2cc1OC + CC1OCC2(CCN(c3cnc(Sc4ccnc(N)c4Cl)c(N)n3)CC2)C1N ?
94.6

Provenance of the data: PubChem BioAssay AID1963860
